- Organism: Homo sapiens
- measurement_description: Concentration required to inhibit 50% growth of Human CEM T-lymphocytes cells
- Format: functional, cell-based
- condition_notes: CCRF-CEM
As shown below, each of these compounds has a reported IC50 value.

{"compound": "O=C(/C=C/c1c(Cl)cccc1Cl)c1ccc(O)cc1", "readout_units": "µM", "IC50": 1.36}
{"compound": "O=C(/C=C/c1ccccc1Cl)c1ccc(O)cc1", "readout_units": "µM", "IC50": 13.9}
{"compound": "CN(C)Cc1cc(C(=O)/C=C/c2ccc(Br)cc2)cc(CN(C)C)c1O", "readout_units": "µM", "IC50": 4.78}
{"compound": "O=C(/C=C/c1ccc(Br)cc1)c1ccc(O)cc1", "readout_units": "µM", "IC50": 1.98}
{"compound": "CN(C)Cc1cc(C(=O)/C=C/c2ccc(C(F)(F)F)cc2)cc(CN(C)C)c1O", "readout_units": "µM", "IC50": 1.56}
{"compound": "COc1ccc(/C=C/C(=O)c2cc(CN(C)C)c(O)c(CN(C)C)c2)cc1", "readout_units": "µM", "IC50": 14.8}
{"compound": "O=C(/C=C/c1cc(F)ccc1F)c1ccc(O)cc1", "readout_units": "µM", "IC50": 3.57}
{"compound": "O=C(/C=C/c1ccc(/C=C/C(=O)c2ccc(O)cc2)cc1)c1ccc(O)cc1", "readout_units": "µM", "IC50": 78.6}
{"compound": "CN(C)Cc1cc(C(=O)/C=C/c2ccc(Cl)c(Cl)c2)cc(CN(C)C)c1O", "readout_units": "µM", "IC50": 2.48}
{"compound": "CN(C)Cc1cc(C(=O)/C=C/c2ccc(Cl)cc2)cc(CN(C)C)c1O", "readout_units": "µM", "IC50": 6.48}
{"compound": "O=C(/C=C/c1ccccc1)c1ccc(O)cc1 [4'-HYDROXYCHALCONE]", "readout_units": "µM", "IC50": 14.7}

* * *

- Species: Homo sapiens
- measurement_description: Concentration required to inhibit 50% growth of Human CEM T-lymphocytes cells
- Format: functional, cell-based
- condition_notes: CCRF-CEM
measure_name: log10 IC50 (log10 of the value in µM)

{"smiles_repr": "O=C(/C=C/c1cccc(Cl)c1)c1ccc(O)cc1", "log10 IC50": 0.73}
{"smiles_repr": "CN(C)Cc1cc(C(=O)/C=C/c2ccc(O)cc2)cc(CN(C)C)c1O", "log10 IC50": 1.59}
{"smiles_repr": "CN(C)Cc1cc(C(=O)/C=C/c2c(Cl)cccc2Cl)cc(CN(C)C)c1O", "log10 IC50": 0.64}
{"smiles_repr": "CN(C)Cc1cc(C(=O)/C=C/c2ccc([N+](=O)[O-])cc2)cc(CN(C)C)c1O", "log10 IC50": 0.24}
{"smiles_repr": "Cc1ccc(/C=C/C(=O)c2cc(CN(C)C)c(O)c(CN(C)C)c2)cc1", "log10 IC50": 1.55}
{"smiles_repr": "O=C(/C=C/c1ccc([N+](=O)[O-])cc1)c1ccc(O)cc1", "log10 IC50": 0.35}
{"smiles_repr": "O=C(/C=C/c1ccccc1)c1ccccc1", "log10 IC50": 1.10}
{"smiles_repr": "O=C(/C=C/c1ccccc1)c1cc(CN2CCOCC2)c(O)c(CN2CCOCC2)c1", "log10 IC50": 0.79}
{"smiles_repr": "O=C(/C=C/c1ccc(Cl)c(Cl)c1)c1ccc(O)cc1", "log10 IC50": 0.23}
{"smiles_repr": "O=C(/C=C/c1ccc(F)cc1)c1ccc(O)cc1", "log10 IC50": 0.52}
{"smiles_repr": "CN(C)Cc1cc(C(=O)/C=C/c2ccccc2)cc(CN(C)C)c1O", "log10 IC50": 1.29}
